Task for the reader: assign each of the following compounds its reported Population Tubulin-Different-Phenotype (%).
- System: Fibroblast
- procedure text: Multiplex assay against human fibroblast
- Format: toxicity, cell-based
- study conditions: 24 h, 1 µM, compound concentration 1 uM, replicate 2
Express your answer in %, writing the number without its unit.

Data request: Entry COc1cc2ncn(-c3cc(OCc4ccccc4C(F)(F)F)c(C(N)=O)s3)c2cc1OC [GW843682X] has what Population Tubulin-Different-Phenotype (%)?
Data returned: 17

Data request: Entry `CCOC(=O)Nc1cc(-c2ccc(C)c(NS(C)(=O)=O)c2)nn2c(C)nnc12` has what Population Tubulin-Different-Phenotype (%)?
Data returned: 15

Data request: Entry `Cl.O=C(O)c1cc(-c2ccc(C3CCNCC3)cc2)c2ccc(-c3ccc(C(F)(F)F)cc3)cc2c1` has what Population Tubulin-Different-Phenotype (%)?
Data returned: 30

Data request: Entry `O=c1[nH]c2ccccc2n1C1CCN(Cc2ccc(-c3[nH]c4cc5ncnc5cc4nc3-c3ccccc3)cc2)CC1` has what Population Tubulin-Different-Phenotype (%)?
Data returned: 36

Data request: Entry `CCc1ccc(OCc2ccccc2C(=O)Nc2ccc3nc(C)cc(N)c3c2)cc1.Cl` has what Population Tubulin-Different-Phenotype (%)?
Data returned: 63
